The values you see were collected from the supplement of paper PMC6089552.

# System: A673/TR/shEF
# protocol summary: cell viability (LOESS-normalised, relative to median of negative controls) (log2 ratio); higher = more viable cells (less compound effect), active = hit call of the paper (over 3 MAD below the median)
# measurement setup: 2.5 µM; library screen: screen2; EWS-FLI1 expression: high (no doxycycline); treatment time: 72 h
Among all 3,200 compounds or so, about 300 (9.4%) showed activity. The list comes from a sample in which actives are over-represented; it also holds close analogues and randomly drawn compounds.
Just give me one of these, please: active, inactive

Q: Hello, I am checking results. What call was entered for `N#C[C@H](O[C@@H]1O[C@H](CO[C@@H]2O[C@H](CO)[C@@H](O)[C@H](O)[C@H]2O)[C@@H](O)[C@H](O)[C@H]1O)c1ccccc1` ?
Ans: inactive

Q: Hello, I am checking results. What call was entered for CC(C)NC(C)Cc1ccc(I)cc1 (stereo not given) ?
Ans: inactive

Q: Hello, I am checking results. What call was entered for CCN(CC)C(=O)NC1C=C2c3cccc4[nH]cc(c34)CC2N(C)C1 (stereo not given) ?
Ans: inactive

Q: Hello, I am checking results. What call was entered for `CC[C@@]1(O)C(=O)OCc2c1cc1n(c2=O)Cc2cc3ccccc3nc2-1` ?
Ans: active

Q: Hello, I am checking results. What call was entered for CN1CC[C@@]2(C)c3cc(O)ccc3N(C)C12 (stereo not given in full) ?
Ans: inactive

Q: Hello, I am checking results. What call was entered for `CN1CC[C@@]23CCCC[C@@H]2[C@@H]1Cc1ccc(O)cc13` ?
Ans: inactive

Q: Hello, I am checking results. What call was entered for `CN[C@@H]1C[C@@H](c2ccc(Cl)c(Cl)c2)c2ccccc21` ?
Ans: inactive

Q: Hello, I am checking results. What call was entered for C=CCN1CCC23c4c5ccc(O)c4O[C@@H]2/C(=N/NC(=O)c2ccccc2)CCC3(O)[C@H]1C5 (stereo not given in full) ?
Ans: inactive

Q: Hello, I am checking results. What call was entered for `C=C(C)[C@H]1Cc2c(ccc3c2O[C@@H]2COc4cc(OC)c(OC)cc4[C@@H]2C3=O)O1` ?
Ans: active

Q: Hello, I am checking results. What call was entered for C[N+]1(C)C2CC(OC(=O)[C@H](CO)c3ccccc3)CC1C1OC12 (stereo not given in full) ?
Ans: inactive

Q: Hello, I am checking results. What call was entered for `C[C@@H]1C[C@@H]([C@H](O)CC2CC(=O)NC(=O)C2)C(=O)[C@@H](C)C1` ?
Ans: active

Q: Hello, I am checking results. What call was entered for `Oc1cc2c(cc1O)[C@H]1c3ccccc3CN[C@@H]1CC2` ?
Ans: inactive

Q: Hello, I am checking results. What call was entered for `C/C(O)=C(\C#N)C(=O)Nc1cc(Br)ccc1Br` ?
Ans: inactive

Q: Hello, I am checking results. What call was entered for CC(C)(C)c1o[nH]c(=O)c1CC(N)C(=O)O (stereo not given) ?
Ans: inactive

Q: Hello, I am checking results. What call was entered for CC(Cc1ccc(O)cc1)NCC(O)c1cc(O)cc(O)c1 (stereo not given) ?
Ans: inactive

Q: Hello, I am checking results. What call was entered for Oc1ccc2c3c1O[C@H]1c4oc5ccccc5c4C[C@@]4(O)C(C2)N(CC2CC2)CCC314 (stereo not given in full) ?
Ans: inactive

Q: Hello, I am checking results. What call was entered for `C#CCOC(=O)C1=CCCN(C)C1` ?
Ans: inactive

Q: Hello, I am checking results. What call was entered for CN1C2CCC1CC(OC(=O)c1cc(Cl)cc(Cl)c1)C2 (stereo not given) ?
Ans: inactive

Q: Hello, I am checking results. What call was entered for `C[C@H]1C(=O)O[C@@H]2CCN3CC=C(COC(=O)[C@](C)(O)[C@]1(C)O)[C@H]23` ?
Ans: inactive

Q: Hello, I am checking results. What call was entered for `CC(C)Oc1cccnc1N(C)C1CCN(Cc2ccc(I)cc2)CC1` ?
Ans: inactive

Q: Hello, I am checking results. What call was entered for `CCn1cnc2c(Nc3cccc(Cl)c3)nc(N[C@@H]3CCCC[C@@H]3N)nc21` ?
Ans: active

Q: Hello, I am checking results. What call was entered for `Cc1c2ccncc2c(C)c2c1[nH]c1ccccc12` ?
Ans: active

Q: Hello, I am checking results. What call was entered for Nc1ncnc2c1ncn2[C@@H]1O[C@@H]2COP(O)(=S)O[C@H]2[C@H]1O (stereo not given in full) ?
Ans: inactive

Q: Hello, I am checking results. What call was entered for Cc1o[nH]c(=O)c1CC(N)C(=O)O (stereo not given) ?
Ans: inactive

Q: Hello, I am checking results. What call was entered for `Cc1nccc2c1[nH]c1ccccc12` ?
Ans: inactive

====

# Test system: A673/TR/shEF
# protocol summary: cell viability (LOESS-normalised, relative to median of negative controls) (log2 ratio); higher = more viable cells (less compound effect), active = hit call of the paper (over 3 MAD below the median)
# measurement setup: 2.5 µM; library screen: screen1; EWS-FLI1 expression: high (no doxycycline); treatment time: 72 h
The whole screen tested about 3,200 compounds, of which about 300 (9.4%) showed activity. This is one part of a sample in which actives are shown more often than they occur.
Category | rule: reported cell viability (log2) within range, see low interval: < 0.07; middle interval: ≥ 0.07 and < 0.09; high interval: ≥ 0.09

Q: Class label required: `N#CC(C#N)=Cc1cc(O)c(O)c([N+](=O)[O-])c1`
Ans: low interval

Q: Class label required: `CC(=O)[C@H]1CC[C@H]2[C@@H]3CC[C@H]4C[C@@H](O)CC[C@]4(C)[C@H]3CC[C@]12C`
Ans: low interval

Q: Class label required: `C[C@]12CC[C@H](O)C[C@@H]1CC[C@@H]1[C@@H]2CC[C@]2(C)[C@@H](O)CC[C@@H]12`
Ans: high interval

Q: Class label required: `COc1cc2occc2c2oc(=O)ccc12`
Ans: high interval

Q: Class label required: `C[C@]12CC[C@H](O)C[C@H]1CC[C@@H]1[C@@H]2[C@H](O)C[C@]2(C)[C@@H](C3=CC(=O)OC3)CC[C@]12O`
Ans: low interval

Q: Class label required: COC1C[C@H](O[C@H]2CC[C@]3(C)C4CC[C@]5(C)[C@@H](C6=CC(=O)OC6)CC[C@]5(O)C4CC[C@]3(O)C2)OC(C)[C@H]1O (some centres undefined)
Ans: low interval

Q: Class label required: NC(=NCCCC(N)C(=O)O)N[N+](=O)[O-] (centres undefined)
Ans: high interval

Q: Class label required: COC1C(O)C(O[C@H]2CC[C@]3(C=O)C4C(CC[C@]3(O)C2)[C@@]2(O)CC[C@H](C3=CC(=O)OC3)[C@@]2(C)C[C@H]4OC(C)=O)OC(C)C1OC(C)=O (some centres undefined)
Ans: middle interval

Q: Class label required: CC1(C)C(=O)[C@@H]2O[C@@H]2[C@@]2(C)C1C[C@@H](O)[C@]1(C)C2CC[C@@]2(C)[C@H](c3ccoc3)OC(=O)C3OC321 (some centres undefined)
Ans: middle interval

Q: Class label required: CC1(C)C2C[C@@H](O)[C@]3(C)C(CC[C@@]4(C)[C@H](c5ccoc5)CC5OC543)[C@@]2(C)[C@@H](O)C[C@H]1O (some centres undefined)
Ans: high interval

Q: Class label required: COP(=O)(OC)OC(Br)C(Cl)(Cl)Br (centres undefined)
Ans: middle interval

Q: Class label required: `C[C@]12CC[C@H](O)C[C@H]1CC[C@@H]1[C@@H]2C[C@@H](O)[C@]2(C)[C@@H](C3=CC(=O)OC3)CC[C@]12O`
Ans: low interval

Q: Class label required: `C[C@]12CC[C@H](O)C[C@@H]1CC[C@@H]1[C@@H]2CC[C@]2(C)C(=O)CC[C@@H]12`
Ans: high interval

Q: Class label required: `N#CC(C#N)=Cc1ccc([N+](=O)[O-])c(O)c1`
Ans: low interval

Q: Class label required: `CCC(=O)Nc1ccc(Cl)c(Cl)c1`
Ans: low interval

Q: Class label required: C[C@]12CCC3C(CC[C@H]4C[C@H](O)CC[C@]34C)C1CC[C@@H]2O (some centres undefined)
Ans: high interval

Q: Class label required: `C[C@]12CC[C@@H](O)C[C@@H]1CC[C@@H]1[C@@H]2CC[C@]2(C)C(=O)CC[C@@H]12`
Ans: low interval

====

# System: A673/TR/shEF
# protocol summary: cell viability (LOESS-normalised, relative to median of negative controls) (log2 ratio); higher = more viable cells (less compound effect), active = hit call of the paper (over 3 MAD below the median)
# measurement setup: 25 µM; library screen: screen1; EWS-FLI1 expression: low (doxycycline-induced shRNA knockdown); treatment time: 72 h
The whole screen tested about 3,200 compounds, of which about 300 (9.4%) showed activity. Shown is part of a subset that was picked to be rich in actives.
test readout: cell viability (log2)
API doc: respond with a numeric literal and nothing else, no unit.

So, `C/C(O)=C(\C#N)C(=O)Nc1cc(Br)ccc1Br` ? Its cell viability (log2) was -0.00927

So, `CN[C@@H]1C[C@H]2O[C@@](C)([C@@H]1OC)n1c3ccccc3c3c4c(c5c6ccccc6n2c5c31)C(=O)NC4` ? Its cell viability (log2) was -4.31

So, `CC(C)(C)c1cc(C=C(C#N)C#N)cc(C(C)(C)C)c1O` ? Its cell viability (log2) was -2.45

So, `N#CC(C#N)=Cc1ccc(O)c(O)c1` ? Its cell viability (log2) was 0.016

So, `O=P(O)(O)Cc1ccccc1` ? Its cell viability (log2) was -1.06

So, `N#CC(C#N)=Cc1cc(O)c(O)c(O)c1` ? Its cell viability (log2) was 0.1

So, CC1(C(=O)O)C2CCC(O2)C1(C)C(=O)O (configuration not stated) ? Its cell viability (log2) was -0.597

So, `N#CC(C#N)=Cc1ccc([N+](=O)[O-])c(O)c1` ? Its cell viability (log2) was -0.158

So, CC1(C)C(C=C(Cl)Cl)C1C(=O)OC(C#N)c1cccc(Oc2ccccc2)c1 (configuration not stated) ? Its cell viability (log2) was -0.665

So, CC(C)C(C(=O)OC(C#N)c1cccc(Oc2ccccc2)c1)c1ccc(Cl)cc1 (configuration not stated) ? Its cell viability (log2) was 0.0476

So, `COC[C@H]1OC(=O)c2coc3c2[C@@]1(C)C1=C(C3=O)[C@@H]2CCC(=O)[C@@]2(C)C[C@H]1OC(C)=O` ? Its cell viability (log2) was -0.309

So, `N#CC(C#N)=Cc1cc(O)c(O)c([N+](=O)[O-])c1` ? Its cell viability (log2) was 0.176
